Target: CAR-2
Protocol Text: flow cytometry; clonal supernatant on control CAR-2 T cells, FITC goat anti-rabbit F(ab')2 detection
Measured Metric: CAR+ (gate frequency)
// keep it numeric: no unit symbol after the value

Param item = Clone 154-7 (antibody, V domains shown) VH: QSLEESGGDLVKPEGSLTLTCTASGFSFSSSYWICWVRQAPGKGLEWIACIYTANSGRTVYASWAKGRFTISKTSSTTVTLQLPSLTAADTATYFCARDIYVLTTTDNLWGPGTLVTVSS VL: ALVMTQAPSPVSAAVGGTVTISCQASQPIGSDLVWYQQKPGQPPKLLIYYASDLASGVPSRFKGSGSGTRFTLTISGVECDDAATYYCAGYKNYDHDDCGFGGGTEVVVK ; retrieve measured CAR+ (gate frequency).
0.067
